Every entry's value here was drawn from the supplement of paper PMC6555819.

Each entry below lists one item and its recorded PBM binding z-score value.
- System: LXRb:RXRa (NR concentration 270 nM, RXRa partner concentration 90 nM)
- protocol: PBM binding z-score (relative to random genomic background probes); higher = stronger binding; sequences stand for … in GC…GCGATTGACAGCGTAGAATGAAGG
endpoint_label: PBM binding z-score

construct_sequence=ATATGTAGGTTACGGTCATTCAGAAAGTAGGGAA endpoint_label="PBM binding z-score" result=1.74
construct_sequence=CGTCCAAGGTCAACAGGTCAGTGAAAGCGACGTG endpoint_label="PBM binding z-score" result=4.45
construct_sequence=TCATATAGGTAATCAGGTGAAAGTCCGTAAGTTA endpoint_label="PBM binding z-score" result=0.96
construct_sequence=CCCGCTAGGTCATGGTCAGCTAATCTACAGTATG endpoint_label="PBM binding z-score" result=2
construct_sequence=CGAACTAGGTCAAAGGTCAGTGAAAGGCGACGTA endpoint_label="PBM binding z-score" result=5.55
construct_sequence=CGAACTATGTCACCAGGACAGTGAAGAGGTTGGA endpoint_label="PBM binding z-score" result=-0.257
construct_sequence=CCGATTAGGTTACGAGGGGGCATTCAGTGCGAAT endpoint_label="PBM binding z-score" result=6.42
construct_sequence=CCGAGTAGGTTATGAGGGGGCATTCAGTGCGAAT endpoint_label="PBM binding z-score" result=6.27
construct_sequence=CGAACTAGGTGACCAGGACAGTGAAGAGGTTGGA endpoint_label="PBM binding z-score" result=-0.307
construct_sequence=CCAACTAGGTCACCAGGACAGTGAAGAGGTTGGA endpoint_label="PBM binding z-score" result=1.91
construct_sequence=GCATACGGGTCAAAGGTTATAGCATGAATAGAAT endpoint_label="PBM binding z-score" result=5.74
construct_sequence=ATATGTAGGTTAGGGTCATTCAAAAAGTAGGGAA endpoint_label="PBM binding z-score" result=4.59
construct_sequence=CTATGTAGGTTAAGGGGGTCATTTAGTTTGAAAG endpoint_label="PBM binding z-score" result=6.37

###

- Test system: PPARg:RXRa 270nM:90nM, anti-RXR (NR concentration 270 nM, RXRa partner concentration 90 nM)
- protocol: PBM binding z-score (relative to random genomic background probes); higher = stronger binding; sequences stand for … in GC…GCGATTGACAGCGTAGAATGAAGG
Each entry below lists one item and its recorded PBM binding z-score value.
endpoint_label: PBM binding z-score

construct_sequence=TCGAGAAGGTTACGGGGGCATTCAGGGATGAAGA endpoint_label="PBM binding z-score" numeric_readout=5.94
construct_sequence=ACTAGGTGGTCAGCTGAGGTCACACACAATTCGG endpoint_label="PBM binding z-score" numeric_readout=2.63
construct_sequence=CGTCCAAGGTCAATGCTAGCTCAGTGAAAGCATT endpoint_label="PBM binding z-score" numeric_readout=4
construct_sequence=ATATGTAGGTTAGGGTCATTCTGAAAGTAGGGAA endpoint_label="PBM binding z-score" numeric_readout=6.24

###

- System: RXRa DBDmut IVT, anti-RXR (DBD mutation: RXRa K156A/R161A, NR concentration 90 nM)
- protocol: PBM binding z-score (relative to random genomic background probes); higher = stronger binding; sequences stand for … in GC…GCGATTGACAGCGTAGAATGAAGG
# label = t if PBM binding z-score >= 0.9 else f

construct_sequence=CTATGTAGGCTAAGGGGGTCATTCAGTTTGAAAG cat=t
construct_sequence=CGAACTAGGTCACCAGGACATTGAAGAGGTTGGA cat=t
construct_sequence=CCTACTGGGCCGAGGTCATTGATCAGTCAAAGCA cat=t
construct_sequence=CATACAGGGTAAGCTAGGCCAGAGTAGGGACGGC cat=f
construct_sequence=AATACAGGGTGATCGTAGGCCAGAGTACGCACAG cat=f
construct_sequence=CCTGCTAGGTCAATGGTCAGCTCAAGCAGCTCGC cat=t
construct_sequence=ATATGTAGGTTAGGGTCATGCAGAAAGTAGGGAA cat=t
construct_sequence=GATACAGAGTCAGCTAGAGGCCAGAGTATGGAAA cat=f
construct_sequence=TAGCCTAGGTCATTCAGGGGGCAGTATAGAAAGC cat=t
construct_sequence=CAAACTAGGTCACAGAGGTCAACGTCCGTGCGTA cat=t
construct_sequence=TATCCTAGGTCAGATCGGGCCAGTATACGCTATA cat=f
construct_sequence=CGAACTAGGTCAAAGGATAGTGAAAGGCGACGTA cat=t
construct_sequence=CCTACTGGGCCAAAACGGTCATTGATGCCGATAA cat=f
construct_sequence=CAAACTAGGTCACGAAAGGGCAAAGTCGAATGAC cat=t
construct_sequence=CTATGTAGGTTGAGGGGGTCATTCAGTTTGAAAG cat=t
construct_sequence=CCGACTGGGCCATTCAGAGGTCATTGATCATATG cat=t
construct_sequence=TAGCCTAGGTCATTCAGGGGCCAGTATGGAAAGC cat=t
construct_sequence=CCTCGGAGGACAACCGGAGGTCAGAGCTGCCAGA cat=f
construct_sequence=CCTAGTAGGTTACGAGGGGGCATTCAGTGCGAAT cat=t
construct_sequence=GCTAGTTGGTCAGTAAATGGTCACACACCGGTCG cat=f
construct_sequence=CCTACTGGGGCAAAGGTCATTGATTCCAATGCTC cat=f
construct_sequence=TCATATAGGTTAAAGGTGAAAGTCGGTGTGGTAA cat=t
construct_sequence=CTATGTAGGTTAAGTGGGTCATTCAGTTTGAAAG cat=f
construct_sequence=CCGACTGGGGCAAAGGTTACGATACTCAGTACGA cat=f
construct_sequence=CGTCAAAGCTCAACTAAGGTAACGTAAAGCACGC cat=f
construct_sequence=TCGAGTAGGTTACGCGGGCATTCAGGGATGAAGA cat=f
construct_sequence=ATCGAAAGGTCGAAGGTGAGTCTACCCACCCGAA cat=f
construct_sequence=AGTCAAAGGTCACTAGGTAACGTAAGATTCAGCT cat=t
construct_sequence=AGATGTAGGTTAGGGTCATTCAGAAAGTAGGGAA cat=t

###

- System: PPARg:RXRa 270nM:90nM, anti-RXR (NR concentration 270 nM, RXRa partner concentration 90 nM)
- protocol: PBM binding z-score (relative to random genomic background probes); higher = stronger binding; sequences stand for … in GC…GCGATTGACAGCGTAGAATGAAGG
endpoint_label: PBM binding z-score

construct_sequence=TTACCAAGGTGAAAGGTCGTTGAGGCACGCCTTG endpoint_label="PBM binding z-score" result=8.28
construct_sequence=AGCTCTAGGTAAAAGTTCAGTGAATCCCGAGGAT endpoint_label="PBM binding z-score" result=7.47
construct_sequence=CGAACTAGGTCAAAGGACAGTTAAAGGCGACGTA endpoint_label="PBM binding z-score" result=8.8
construct_sequence=ATATGTAGGTTAGGGTGATTCAGAAAGTAGGGAA endpoint_label="PBM binding z-score" result=4.45
construct_sequence=CCAGACAGGTGAAAGGTCACTCAGTCTGGTACGC endpoint_label="PBM binding z-score" result=8.84
construct_sequence=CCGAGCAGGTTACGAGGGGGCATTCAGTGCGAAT endpoint_label="PBM binding z-score" result=1.95
construct_sequence=CGAACTAGGTCAAAGGACAGCGAAAGGCGACGTA endpoint_label="PBM binding z-score" result=8.88

###

Each entry below lists one item and its recorded PBM binding z-score value.
- Test system: RARg homodimer (NR concentration 270 nM)
- protocol: PBM binding z-score (relative to random genomic background probes); higher = stronger binding; sequences stand for … in GC…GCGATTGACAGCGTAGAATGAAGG
endpoint_label: PBM binding z-score

construct_sequence=TGTCAGAGTTCAAAGGTAACGTAAGTATCCACAC endpoint_label="PBM binding z-score" numeric_readout=5.28
construct_sequence=CCTACTGGGCCACTCAGAGGTCATTGATCATATG endpoint_label="PBM binding z-score" numeric_readout=3.39
construct_sequence=CAAAGTAGGTCAAGAGGTCAAAGTCCGCTTCCCG endpoint_label="PBM binding z-score" numeric_readout=7.92
construct_sequence=CCTTACGGGTCAGTGACAGGTTATAGCATTTGGA endpoint_label="PBM binding z-score" numeric_readout=3.43
construct_sequence=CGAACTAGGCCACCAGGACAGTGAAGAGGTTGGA endpoint_label="PBM binding z-score" numeric_readout=0.672
construct_sequence=CAAACTAGGTCAAAGGTCAAGGTCGAGCCAACCA endpoint_label="PBM binding z-score" numeric_readout=7.7
construct_sequence=CGTCCAAGGTCAAAGGTCACTGAAGAGATGACGG endpoint_label="PBM binding z-score" numeric_readout=8.6
construct_sequence=TCGAGTAGGTTACGGGGGTATTCAGGGATGAAGA endpoint_label="PBM binding z-score" numeric_readout=1.62
construct_sequence=TCGAGTAGGTTACGGGTGCATTCAGGGATGAAGA endpoint_label="PBM binding z-score" numeric_readout=0.463
